- Assay target: PI3Kγ (p110γ) Recombinant Human Protein (Homo sapiens (Human), UniProt P48736)
- Sequence (P48736 whole entry): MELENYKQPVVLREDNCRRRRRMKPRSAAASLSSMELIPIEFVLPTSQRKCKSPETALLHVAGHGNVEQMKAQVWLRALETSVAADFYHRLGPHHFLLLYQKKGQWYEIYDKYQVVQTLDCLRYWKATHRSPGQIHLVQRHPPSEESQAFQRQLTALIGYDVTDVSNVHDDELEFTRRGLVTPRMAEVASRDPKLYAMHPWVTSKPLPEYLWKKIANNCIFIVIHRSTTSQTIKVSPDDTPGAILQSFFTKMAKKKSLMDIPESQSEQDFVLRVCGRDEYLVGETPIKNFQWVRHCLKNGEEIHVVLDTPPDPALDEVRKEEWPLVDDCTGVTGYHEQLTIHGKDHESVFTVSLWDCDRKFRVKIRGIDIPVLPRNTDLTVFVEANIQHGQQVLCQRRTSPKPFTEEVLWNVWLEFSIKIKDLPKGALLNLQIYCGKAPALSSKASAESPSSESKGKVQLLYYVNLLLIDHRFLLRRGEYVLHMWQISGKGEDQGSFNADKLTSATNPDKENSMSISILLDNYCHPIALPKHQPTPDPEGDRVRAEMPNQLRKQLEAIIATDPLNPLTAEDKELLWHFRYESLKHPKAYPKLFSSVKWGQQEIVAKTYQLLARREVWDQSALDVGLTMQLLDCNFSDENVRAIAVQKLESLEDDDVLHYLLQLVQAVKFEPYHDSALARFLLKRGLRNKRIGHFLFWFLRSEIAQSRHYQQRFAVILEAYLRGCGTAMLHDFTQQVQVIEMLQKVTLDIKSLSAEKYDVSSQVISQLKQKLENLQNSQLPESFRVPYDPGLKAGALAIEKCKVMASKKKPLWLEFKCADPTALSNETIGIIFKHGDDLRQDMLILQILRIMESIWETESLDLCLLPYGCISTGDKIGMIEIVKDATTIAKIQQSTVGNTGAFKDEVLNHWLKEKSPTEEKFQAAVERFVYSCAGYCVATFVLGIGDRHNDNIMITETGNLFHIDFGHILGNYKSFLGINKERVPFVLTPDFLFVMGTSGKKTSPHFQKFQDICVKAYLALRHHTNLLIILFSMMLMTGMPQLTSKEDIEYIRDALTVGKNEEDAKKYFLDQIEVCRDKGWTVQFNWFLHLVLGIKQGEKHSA
- Assay name: PI3K-γ scintillation proximity assay
- Assay type: biochemical
- Protocol conditions: Table A3; scintillation proximity assay, recombinant human p110γ
Structures can show the parent of a compound that is named as a salt.
Readout: IC50

Known IC50 results, listed for orientation:
{"Compound": "Cc1ccc(-c2nc(-c3cc(C(O)(C(N)=O)C(F)(F)F)ccc3C)cnc2N)cn1 (stereo not drawn) [Example 82, bistrifluoroacetate]", "Readout value": "< 100 nM"}
{"Compound": "CNC(=O)c1ccc(-c2nc(-c3cc(C(O)(C(N)=O)C(F)(F)F)ccc3C)cnc2N)cn1 (stereo not drawn) [Example 80, bistrifluoroacetate]", "Readout value": "< 100 nM"}

Turning to the following compound.
Quick note, IC50 for Cc1ccc(C(O)(C(N)=O)C(F)(F)F)cc1-c1cnc(N)c(-c2ccc(C(C)(C)O)cc2)n1 (stereo not drawn) [Example 91, trifluoroacetate] landed at < 100 nM

* * *

- Assay target: PI3Kγ (p110γ) Recombinant Human Protein (Homo sapiens (Human), UniProt P48736)
- Assay name: PI3K-γ scintillation proximity assay
- Format: biochemical
- Source text: Example B. PI3K-γ Scintillation Proximity Assay Materials: [γ-^33P]ATP (10 mCi/mL) and Wheat Germ Agglutinin (WGA) YSi SPA Scintillation Beads was purchased from Perkin Elmer (Waltham, MA). Lipid kinase substrate, D-myo-Phosphatidylinositol 4,5-bisphosphate (PtdIns(4,5)P2)D (+)-sn-1,2-di-O-octanoylglyceryl, 3-O-phospho linked (PIP2), CAS 204858-53-7, was purchased from Echelon Biosciences (Salt Lake City, UT). […]
pIC50: −log10 of the molar value. Counter-ions that a name gives are not always drawn.
Listed below: pIC50 values for each entry.

Known pIC50 results, listed for orientation:
{"Compound": "Cc1ccc(C(O)(C(N)=O)C(F)(F)F)cc1-c1cnc(N)c(N2CCN(CCC#N)CC2)n1 (centres unmarked) [Example 125, trifluoroacetate]", "pIC50": "> 7.00"}
{"Compound": "Cc1ccc(C(O)(C(N)=O)C(F)(F)F)cc1-c1cnc(N)c(N2CCN(C(=O)c3ccco3)CC2)n1 (centres unmarked) [Example 127, trifluoroacetate]", "pIC50": "> 7.00"}
{"Compound": "Cc1ccc(C(O)(C(N)=O)C(F)(F)F)cc1-c1cnc(N)c(N2CCN(c3ccccn3)CC2)n1 (centres unmarked) [Example 117, trifluoroacetate]", "pIC50": "> 7.00"}
{"Compound": "Cc1ccc(C(O)(C(N)=O)C(F)(F)F)cc1-c1cnc(N)c(N2CC(=O)N(c3ccc(O)cc3)[C@@H](CO)C2)n1 (some centres unmarked) [Example 124, trifluoroacetate]", "pIC50": "> 7.00"}

Turning to the following compound.
Quick note, pIC50 for Cc1ccc(C(O)(C(N)=O)C(F)(F)F)cc1-c1cnc(N)c(-c2cnn(CC3(C#N)CC3)c2)n1 (centres unmarked) [Example 78, trifluoroacetate] landed at > 7.00

* * *

- Assay target: PI3Kγ (p110γ) Recombinant Human Protein (Homo sapiens (Human))
- Assay name: PI3K-γ scintillation proximity assay
- Type: biochemical
- Protocol conditions: Table A1; scintillation proximity assay, recombinant human p110γ
pIC50: −log10 of the molar value. Counter-ions that a name gives are not always drawn.
Listed below: pIC50 values for each entry.

pIC50 of Cc1ccc(C(O)(C(N)=O)C(F)(F)F)cc1-c1cnc(N)c(C(=O)NCCC#N)n1 (centres unmarked) [Example 14, trifluoroacetate] , assay on PI3Kγ (p110γ) Recombinant Human Protein (Homo sapiens (Human)), is > 7.00

pIC50 of COC(C)(C)CNC(=O)c1nc(-c2cc(C(O)(C(N)=O)C(F)(F)F)ccc2C)cnc1N (centres unmarked) [Example 21, trifluoroacetate] , assay on PI3Kγ (p110γ) Recombinant Human Protein (Homo sapiens (Human)), is > 7.00

pIC50 of CCNC(=O)c1nc(-c2cc(C(O)(C(N)=O)C(F)F)ccc2C)cnc1N (centres unmarked) [Example 32] , assay on PI3Kγ (p110γ) Recombinant Human Protein (Homo sapiens (Human)), is > 7.00

pIC50 of Cc1ccc(C(O)(C(N)=O)C(F)(F)F)cc1-c1cnc(N)c(C(=O)N[C@H]2CC[C@H](O)CC2)n1 (some centres unmarked) [Example 3] , assay on PI3Kγ (p110γ) Recombinant Human Protein (Homo sapiens (Human)), is > 7.00

pIC50 of Cc1ccc(C(O)(C(N)=O)C(F)(F)F)cc1-c1cnc(N)c(C(=O)NCC2(C#N)CCC2)n1 (centres unmarked) [Example 16, trifluoroacetate] , assay on PI3Kγ (p110γ) Recombinant Human Protein (Homo sapiens (Human)), is > 7.00

* * *

Listed below: pIC50 values for each entry.
- Assay target: PI3Kγ (p110γ) Recombinant Human Protein (Homo sapiens (Human), UniProt P48736)
- Assay name: PI3K-γ scintillation proximity assay
- Assay type: biochemical
- Protocol conditions: Table A1; scintillation proximity assay, recombinant human p110γ
pIC50: −log10 of the molar value. Where a name gives a salt, the structure may show the parent alone.

{"Compound": "Cc1ccc(C(O)(CNC(=O)C(C)(C)O)C(F)(F)F)cc1-c1cnc(N)c(C(=O)NC(C)C)n1 (stereo not shown) [Example 41, trifluoroacetate]", "pIC50": "> 7.00"}
{"Compound": "Cc1ccc(C(O)(CNC(=O)CF)C(F)(F)F)cc1-c1cnc(N)c(C(=O)NC(C)C)n1 (stereo not shown) [Example 40, trifluoroacetate]", "pIC50": "> 7.00"}
{"Compound": "CO[C@H]1CC[C@H](NC(=O)c2nc(-c3cc(C(O)(C(N)=O)C(F)(F)F)ccc3C)cnc2N)CC1 (stereo partly shown)", "pIC50": "> 7.00"}
{"Compound": "Cc1ccc(C(O)(C(N)=O)C(F)(F)F)cc1-c1cnc(N)c(C(=O)N[C@@H]2CCCOC2)n1 (stereo partly shown) [Example 9, trifluoroacetate]", "pIC50": "> 7.00"}

Quick note, pIC50 for Cc1ccc(C(O)(C(N)=O)C(F)(F)F)cc1-c1cnc(N)c(C(=O)N[C@H]2CC[C@H](C(C)(C)O)CC2)n1 (stereo partly shown) landed at > 7.00

Quick note, pIC50 for Cc1ccc(C(O)(C(N)=O)C(F)(F)F)cc1-c1cnc(N)c(C(=O)NCC(C)(C)C#N)n1 (stereo not shown) [Example 15, trifluoroacetate] landed at > 7.00

Quick note, pIC50 for Cc1ccc(C(O)(C(N)=O)C(F)(F)F)cc1-c1cnc(N)c(C(=O)NC(C)C)n1 (stereo not shown) [Example 5, trifluoroacetate] landed at > 7.00
